- TESTED TARGET: NPEPL1
- EXPERIMENT DESCRIPTION: pooled miR-30 sensor sort-seq; sequence = guide strand; also: reference of the scale not given here
- CONDITIONS USED: shRNA
QUANTITY KIND: sensor-assay potency score (higher = more potent)

{"columns": ["CONSTRUCT SEQUENCE", "TESTED TARGET", "MEAS VALUE"],
 "data": [
  ["TTCGCTAAGCACTGCAATGTGG", "NPEPL1", -0.589],
  ["TTCATGTCCGCCACAGCTGAGG", "NPEPL1", -1.03],
  ["TCGCAGACCATCACAATGCAGC", "NPEPL1", -1.2],
  ["TAGAGGGGACAGCTGTCCGTGG", "NPEPL1", -0.837],
  ["TTGCAAGCATAGGACACGCCAT", "NPEPL1", -0.766],
  ["TCGGTGTTCATCTCATTGCAGG", "NPEPL1", -1.16],
  ["TCGCTCACCAGCATGCACCGGT", "NPEPL1", -0.443]
]}

###

- TESTED TARGET: PEG10
- EXPERIMENT DESCRIPTION: pooled miR-30 sensor sort-seq; sequence = guide strand
- CONDITIONS USED: shRNA
QUANTITY KIND: sensor-assay potency score (higher = more potent)

{"columns": ["CONSTRUCT SEQUENCE", "MEAS VALUE"],
 "data": [
  ["TTCTCTGGGAGGTCTTCTGGGC", -0.944],
  ["TCAACTGAGAAATCCCTGGTGC", 0.598],
  ["TTGATCTCTTCAGAGAGCTCGT", 0.178],
  ["TTCCACTTGCTCTCGAAGGGTG", -0.417],
  ["TGTCAGCGTAGTGACCTCCTGT", -0.0667]
]}

###

Recorded sensor-assay potency score (higher = more potent) for the following sequences
- TESTED TARGET: FCRL4
- EXPERIMENT DESCRIPTION: pooled miR-30 sensor sort-seq; sequence = guide strand
- CONDITIONS USED: shRNA
QUANTITY KIND: sensor-assay potency score (higher = more potent)

{"columns": ["CONSTRUCT SEQUENCE", "MEAS VALUE"],
 "data": [
  ["TAGGCTGAGAGTCTGTAGCTTT", 0.173],
  ["TTGCATAGAACTGAAATCCATT", -0.778],
  ["TAGAACTGAAATCCATTGCAAG", -0.914],
  ["TACATCAACATACAACGACTGA", -0.697],
  ["TTATTTTGAAATTTGATCTAAA", -0.106],
  ["TGTTATTTGAACTTGCTTGTGG", 0.392],
  ["TAGAGCTGATCTTTCCAGCTGA", 0.365]
]}

###

- TESTED TARGET: SLC10A7
- EXPERIMENT DESCRIPTION: pooled miR-30 sensor sort-seq; sequence = guide strand
- CONDITIONS USED: shRNA
Recorded sensor-assay potency score (higher = more potent) for the following sequences
QUANTITY KIND: sensor-assay potency score (higher = more potent)

{"columns": ["CONSTRUCT SEQUENCE", "MEAS VALUE"],
 "data": [
  ["TTTAGCTCCAGCGATCGCCAGC", -1.45],
  ["ATGAGGAGTACACTGCTGCTGA", -0.89],
  ["TTACTTACCAAAAAACTTCCAA", 0.24],
  ["TATTGTTGCAACAGCAATGTAG", 0.00955],
  ["AACAGTATGAGAACAAGGCTGA", 0.508],
  ["TAAAAGCATAAAACTCAGCTGG", -0.225],
  ["TTCTGCCTTGATACCATCCAAG", -1.16]
]}
